test_description: Cmax in human NCI-H2228 cells xenografted BALB/c nu/nu mouse plasma at 50 mg/kg, po qd for 23 days by UPLC-MS/MS analysis
Format: ADME, organism-based
Parameters: time 23 day, dose 50 mg/kg, route po
measurement_type: Cmax (µg/mL)
Record the value in µg/mL, omitting the unit from your answer.

Incoming: State its Cmax: "COc1cc(N2CCC(N(C)C)CC2)ccc1Nc1ncc(Cl)c(Nc2ccc3c(c2)B(O)OC3)n1"
Outgoing: 3.2

---

Collected remaining at 1 h, 1 µM values appear next to each entry.
test_description: in vitro
protocol_conditions: mouse, liver microsomes
Description: Metabolic stability of the compound in mouse liver microsomes assessed as parent compound remaining at 1 uM preincubated for 5 mins followed by NADPH addition and measured after 60 mins by LC-MS/MS analysis
Just the number please, in %, no unit attached.

smiles_input | value_unit | recorded_result
COc1cc(N2CCN(C)CC2)ccc1Nc1ncc(Cl)c(Nc2ccc3c(c2)B(O)OC3)n1 | % | 37.4

Incoming: Provide remaining at 1 h, 1 µM value for the following compound: "COc1cc(N2CCC(N(C)C)CC2)ccc1Nc1ncc(Cl)c(Nc2ccc3c(c2)B(O)OC3)n1"
Outgoing: 32.8

---

test_description: in vitro
protocol_conditions: human, liver microsomes
Description: Intrinsic clearance in human liver microsomes at 1 uM preincubated for 5 mins followed by NADPH addition and measured for 60 mins by LC-MS/MS analysis
measurement_type: microsomal CLint at 1 h, 1 µM (µL/min/mg)
Report the figure in µL/min/mg without appending any unit label.

smiles_input | microsomal CLint at 1 h, 1 µM, µL/min/mg
COc1cc(N2CCC(N(C)C)CC2)ccc1Nc1ncc(Cl)c(Nc2ccc3c(c2)B(O)OC3)n1 | 5.8

We next turn to a different molecule, shown below.
Incoming: Identify measured microsomal CLint at 1 h, 1 µM associated with "COc1cc(N2CCN(C)CC2)ccc1Nc1ncc(Cl)c(Nc2ccc3c(c2)B(O)OC3)n1"
Outgoing: 7.8

---

test_description: Drug uptake in tumor of BALB/c nu/nu mouse xenografted with human NCI-H2228 cells at 50 mg/kg, po qd for 23 days and measured at 6 hrs post-last drug dosage by UPLC-MS/MS analysis
Assay type: ADME, organism-based, Neoplasm
protocol_conditions: time 23 day, read-out: Drug uptake
measurement_type: concentration at 552 h (ng/g)
The reply should be a number in ng/g, with the unit left off.

Incoming: Specify reported concentration at 552 h for the compound shown: "COc1cc(N2CCC(N(C)C)CC2)ccc1Nc1ncc(Cl)c(Nc2ccc3c(c2)B(O)OC3)n1"
Outgoing: 1200

---

test_description: in vitro
protocol_conditions: human, liver microsomes
Description: Half life in human liver microsomes at 1 uM preincubated for 5 mins followed by NADPH addition and measured for 60 mins by LC-MS/MS analysis
measurement_type: half-life at 1 h, 1 µM (min)
Lab book: enter the figure in min, no units written.

smiles_input | half-life at 1 h, 1 µM / min
COc1cc(N2CCC(N(C)C)CC2)ccc1Nc1ncc(Cl)c(Nc2ccc3c(c2)B(O)OC3)n1 | 238

We now examine a further compound.
Incoming: State its half-life at 1 h, 1 µM for this compound: "COc1cc(N2CCN(C)CC2)ccc1Nc1ncc(Cl)c(Nc2ccc3c(c2)B(O)OC3)n1"
Outgoing: 178

---

test_description: Tmax in human NCI-H2228 cells xenografted BALB/c nu/nu mouse plasma at 50 mg/kg, po qd for 23 days by UPLC-MS/MS analysis
Type: ADME, organism-based
protocol_conditions: time 23 day
measurement_type: Tmax (h)
Give the value in h but do not write h after it.

Incoming: Kindly indicate its recorded Tmax. Item: "COc1cc(N2CCC(N(C)C)CC2)ccc1Nc1ncc(Cl)c(Nc2ccc3c(c2)B(O)OC3)n1"
Outgoing: 3.6

---

Some molecules, each annotated with its measured half-life at 1 h, 1 µM.
test_description: in vitro
protocol_conditions: mouse, liver microsomes
Description: Half life in mouse liver microsomes at 1 uM preincubated for 5 mins followed by NADPH addition and measured for 60 mins by LC-MS/MS analysis
Numeric only. Scale: min

smiles_input | half-life at 1 h, 1 µM [min]
COc1cc(N2CCC(N(C)C)CC2)ccc1Nc1ncc(Cl)c(Nc2ccc3c(c2)B(O)OC3)n1 | 38

Proceeding to the next molecule to report its half-life at 1 h, 1 µM.
Incoming: Identify half-life at 1 h, 1 µM associated with the molecule "COc1cc(N2CCN(C)CC2)ccc1Nc1ncc(Cl)c(Nc2ccc3c(c2)B(O)OC3)n1"
Outgoing: 43.5
